# Test system: LN-405 (Glioblastoma)
# EXPERIMENTAL_PROTOCOL: Bliss excess, mean over the matrix (fraction); higher = more synergy
Give measured Bliss excess for each item. Keep answers brief.
// response body must contain only the number

Problem: So what's the measured Bliss excess for this one? Cc1c2c(nn1C)CSCc1cc(n(C)n1)CSc1cc(c3ccccc3c1)OCCCc1c(C(=O)O)n(C)c3c-2c(Cl)ccc13 [AZD5991] + CCN(CCO)CCCOc1ccc2c(Nc3cc(CC(=O)Nc4cccc(F)c4)[nH]n3)ncnc2c1 [AZD2811] (first compound max 1 µM, 7x7, partner max 1 µM)
Solution: 0.0122

Problem: What about this molecule? CS(=O)(=O)CCNCc1ccc(-c2ccc3ncnc(Nc4ccc(OCc5cccc(F)c5)c(Cl)c4)c3c2)o1 [Lapatinib] + NC1(c2ccc(-c3nc4ccn5c(=O)[nH]nc5c4cc3-c3ccccc3)cc2)CCC1 [MK-2206] (first compound max 10 µM, 7x7, partner max 10 µM)
Solution: -0.0277

Problem: Entry CC1(C)CCC(CN2CCN(c3ccc(C(=O)NS(=O)(=O)c4ccc(NCC5CCOCC5)c([N+](=O)[O-])c4)c(Oc4cnc5[nH]ccc5c4)c3)CC2)=C(c2ccc(Cl)cc2)C1 [Venetoclax] + C[C@@H](Nc1cc(F)cc(F)c1)c1cc(C(=O)N(C)C)cc2c(=O)cc(N3CCOCC3)oc12 [AZD8186] (first compound max 1 µM, 7x7, partner max 3 µM) please
Solution: -0.0013

====

# Tested on: A549 (Lung Adenocarcinoma)
# EXPERIMENTAL_PROTOCOL: combination Emax (second highest fraction inhibited in the dose matrix, 72 h); higher = more inhibition; extreme values may be limits of the assay
METRIC: combination Emax

Problem: Give its combination Emax value. Item: C=CCn1c(=O)c2cnc(Nc3ccc(N4CCN(C)CC4)cc3)nc2n1-c1cccc(C(C)(C)O)n1 [AZD1775] + C[C@@H]1COCCN1C2=NC(=NC(=C2)C3(CC3)[S@](=N)(=O)C)C4=C5C=CNC5=NC=C4 [AZD6738] (first compound max 1 µM, partner max 10 µM)
Solution: 0.829

Problem: Input Cc1cc2ncnn2cc1Nc1ncc2c(n1)n(C1CCOCC1)c(=O)n2C [AZD7648] + C[C@@H]1COCCN1C2=NC(=NC(=C2)C3(CC3)[S@](=N)(=O)C)C4=C5C=CNC5=NC=C4 [AZD6738] (first compound max 10 µM, 7x7, partner max 10 µM)
Solution: 0.786

Problem: Please give the result for Cn1cnc2c(F)c(Nc3ccc(Br)cc3Cl)c(C(=O)NOCCO)cc21 [Selumetinib] + CCN(CCO)CCCOc1ccc2c(Nc3cc(CC(=O)Nc4cccc(F)c4)[nH]n3)ncnc2c1 [AZD2811] (first compound max 10 µM, 7x7, partner max 1 µM) too.
Solution: 0.807

Problem: Now the same for Cc1c2c(nn1C)CSCc1cc(n(C)n1)CSc1cc(c3ccccc3c1)OCCCc1c(C(=O)O)n(C)c3c-2c(Cl)ccc13 [AZD5991] + Cc1cc2ncnn2cc1Nc1ncc2c(n1)n(C1CCOCC1)c(=O)n2C [AZD7648] (first compound max 1 µM, 7x7, partner max 10 µM)
Solution: 0.461

====

I'd be grateful if you could share measured combination Emax for these entries.
# System: CCK-81 (Colorectal Carcinoma)
# EXPERIMENTAL_PROTOCOL: combination Emax (second highest fraction inhibited in the dose matrix, 72 h); higher = more inhibition; extreme values may be limits of the assay

Problem: Entry under review: Cc1c2c(nn1C)CSCc1cc(n(C)n1)CSc1cc(c3ccccc3c1)OCCCc1c(C(=O)O)n(C)c3c-2c(Cl)ccc13 [AZD5991] + Cn1cnc2c(F)c(Nc3ccc(Br)cc3Cl)c(C(=O)NOCCO)cc21 [Selumetinib] (first compound max 1 µM, 7x7, partner max 3 µM) . Reported combination Emax?
Solution: 0.947

Problem: Now consider C[C@@H]1COCCN1c1cc(C2([S@](C)(=N)=O)CC2)nc(-c2ccnc3[nH]ccc23)n1 [AZD6738] + C1CC(C1)(C(=O)[O-])C(=O)[O-].N.N.[Pt+2] [Carboplatin] (first compound max 10 µM, 7x7, partner max 10 µM) .
Solution: 0.886

====

# Test system: Hs-445 (Non-Cancerous)
# EXPERIMENTAL_PROTOCOL: Bliss excess, mean over the matrix (fraction); higher = more synergy
METRIC: Bliss excess
The reply should be a number, written without any unit.

Problem: I would be grateful if you could share the reported Bliss excess for COc1cccc2c1C(=O)c1c(O)c3c(c(O)c1C2=O)C[C@@](O)(C(=O)CO)C[C@@H]3O[C@H]1C[C@H](N)[C@H](O)[C@H](C)O1 [Doxorubicin] + Cc1cc2ncnn2cc1Nc1ncc2c(n1)n(C1CCOCC1)c(=O)n2C [AZD7648] (first compound max 1 µM, 7x7, partner max 10 µM) .
Solution: 0.102

Problem: Same lookup for Cn1cnc2c(F)c(Nc3ccc(Br)cc3Cl)c(C(=O)NOCCO)cc21 [Selumetinib] + C[C@@H]1COCCN1C2=NC(=NC(=C2)C3(CC3)[S@](=N)(=O)C)C4=C5C=CNC5=NC=C4 [AZD6738] (first compound max 10 µM, 7x7, partner max 10 µM) , please.
Solution: -0.0473

Problem: Try this compound next: Cn1cnc2c(F)c(Nc3ccc(Br)cc3Cl)c(C(=O)NOCCO)cc21 [Selumetinib] + CCN(CCO)CCCOc1ccc2c(Nc3cc(CC(=O)Nc4cccc(F)c4)[nH]n3)ncnc2c1 [AZD2811] (first compound max 10 µM, 7x7, partner max 1 µM)
Solution: 0.013

Problem: Next: COc1cccc(OCCCN)c1-c1cc(Nc2cnc(C#N)cn2)n[nH]1 [Prexasertib] + CCc1c2c(nc3ccc(O)cc13)-c1cc3c(c(=O)n1C2)COC(=O)[C@]3(O)CC [SN-38] (first compound max 1 µM, 7x7, partner max 0.3 µM)
Solution: -0.0189

Problem: How about COc1cccc(OCCCN)c1-c1cc(Nc2cnc(C#N)cn2)n[nH]1 [Prexasertib] + Cc1cc2ncnn2cc1Nc1ncc2c(n1)n(C1CCOCC1)c(=O)n2C [AZD7648] (first compound max 1 µM, 7x7, partner max 10 µM) ?
Solution: -0.02

Problem: NC1(C(=O)N[C@@H](CCO)c2ccc(Cl)cc2)CCN(c2ncnc3[nH]ccc23)CC1 [Capivasertib] + COc1nnc2ccc(N3CCC(c4ccc(OCCN5CCN(C)C(=O)[C@H]5C)cc4)CC3)nn12 [AZD5153] (first compound max 10 µM, 7x7, partner max 1 µM) , same question.
Solution: -0.027

Problem: Please give the result for CN(CCO)CC[C@H](CSc1ccccc1)Nc1ccc(S(=O)(=O)NC(=O)c2ccc(N3CCC([C@@H](O)c4ccccc4-c4ccc(Cl)cc4)CC3)cc2)cc1S(=O)(=O)C(F)(F)F [AZD4320] + C[C@@H]1COCCN1C2=NC(=NC(=C2)C3(CC3)[S@](=N)(=O)C)C4=C5C=CNC5=NC=C4 [AZD6738] (first compound max 1 µM, 7x7, partner max 10 µM) too.
Solution: 0.0592

Problem: Quick one: CC(=O)c1c(C)c2cnc(Nc3ccc(N4CCNCC4)cn3)nc2n(C2CCCC2)c1=O [Palbociclib] + CN(CC[C@H](CSC1=CC=CC=C1)NC2=C(C=C(C=C2)S(=O)(=O)NC(=O)C3=CC=C(C=C3)N4CCC(CC4)[C@H](C5=CC=CC=C5C6=CC=C(C=C6)Cl)O)S(=O)(=O)C(F)(F)F)CCO [AZD4320] (first compound max 10 µM, 7x7, partner max 1 µM)
Solution: 0.0465

====

# Tested on: PA-1 (Ovarian Carcinoma)
# EXPERIMENTAL_PROTOCOL: combination Emax (second highest fraction inhibited in the dose matrix, 72 h); higher = more inhibition; extreme values may be limits of the assay
METRIC: combination Emax
Could you keep your reply to the number by itself?

Problem: Which combination Emax value belongs to CC1(C)CCC(CN2CCN(c3ccc(C(=O)NS(=O)(=O)c4ccc(NCC5CCOCC5)c([N+](=O)[O-])c4)c(Oc4cnc5[nH]ccc5c4)c3)CC2)=C(c2ccc(Cl)cc2)C1 [Venetoclax] + C[C@@H]1COCCN1C2=NC(=NC(=C2)C3(CC3)[S@](=N)(=O)C)C4=C5C=CNC5=NC=C4 [AZD6738] (first compound max 1 µM, 7x7, partner max 10 µM) ?
Solution: 0.827

Problem: What would you report for Cc1c2c(nn1C)CSCc1cc(n(C)n1)CSc1cc(c3ccccc3c1)OCCCc1c(C(=O)O)n(C)c3c-2c(Cl)ccc13 [AZD5991] + C[C@@H]1COCCN1C2=NC(=NC(=C2)C3(CC3)[S@](=N)(=O)C)C4=C5C=CNC5=NC=C4 [AZD6738] (first compound max 1 µM, 7x7, partner max 10 µM) ?
Solution: 0.967

Problem: Proceed to CCN(CCO)CCCOc1ccc2c(Nc3cc(CC(=O)Nc4cccc(F)c4)[nH]n3)ncnc2c1 [AZD2811] + C[C@@H]1COCCN1C2=NC(=NC(=C2)C3(CC3)[S@](=N)(=O)C)C4=C5C=CNC5=NC=C4 [AZD6738] (first compound max 1 µM, 7x7, partner max 10 µM)
Solution: 0.795

Problem: Now try COc1cccc(OCCCN)c1-c1cc(Nc2cnc(C#N)cn2)n[nH]1 [Prexasertib] + C[C@@H]1COCCN1C2=NC(=NC(=C2)C3(CC3)[S@](=N)(=O)C)C4=C5C=CNC5=NC=C4 [AZD6738] (first compound max 1 µM, 7x7, partner max 10 µM) .
Solution: 0.778

Problem: Could you do the same for COc1cccc2c1C(=O)c1c(O)c3c(c(O)c1C2=O)C[C@@](O)(C(=O)CO)C[C@@H]3O[C@H]1C[C@H](N)[C@H](O)[C@H](C)O1 [Doxorubicin] + Cc1cc2ncnn2cc1Nc1ncc2c(n1)n(C1CCOCC1)c(=O)n2C [AZD7648] (first compound max 1 µM, 7x7, partner max 10 µM) , please?
Solution: 0.892

Problem: Record: C[C@@H](c1ccc2nccn2c1)n1nnc2ncc(-c3cnn(C)c3)nc21 [Savolitinib] + CC1(C)CCC(CN2CCN(c3ccc(C(=O)NS(=O)(=O)c4ccc(NCC5CCOCC5)c([N+](=O)[O-])c4)c(Oc4cnc5[nH]ccc5c4)c3)CC2)=C(c2ccc(Cl)cc2)C1 [Venetoclax] (first compound max 1 µM, 7x7, partner max 1 µM)
Solution: 0.276
